target: T1, ICAM1 on the surface of DU145 cells (human, UniProt P05362 28-532); experiment: flow cytometry, DU145 cells;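 further: purified antibodies in dilution series bound to cells for 1 h at 4 °C, detected with a fluorescent secondary antibody (1 h, 4 °C, dark), read by flow cytometry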
T1 construct: whole, on cells
T1 sequence (P05362 28-532): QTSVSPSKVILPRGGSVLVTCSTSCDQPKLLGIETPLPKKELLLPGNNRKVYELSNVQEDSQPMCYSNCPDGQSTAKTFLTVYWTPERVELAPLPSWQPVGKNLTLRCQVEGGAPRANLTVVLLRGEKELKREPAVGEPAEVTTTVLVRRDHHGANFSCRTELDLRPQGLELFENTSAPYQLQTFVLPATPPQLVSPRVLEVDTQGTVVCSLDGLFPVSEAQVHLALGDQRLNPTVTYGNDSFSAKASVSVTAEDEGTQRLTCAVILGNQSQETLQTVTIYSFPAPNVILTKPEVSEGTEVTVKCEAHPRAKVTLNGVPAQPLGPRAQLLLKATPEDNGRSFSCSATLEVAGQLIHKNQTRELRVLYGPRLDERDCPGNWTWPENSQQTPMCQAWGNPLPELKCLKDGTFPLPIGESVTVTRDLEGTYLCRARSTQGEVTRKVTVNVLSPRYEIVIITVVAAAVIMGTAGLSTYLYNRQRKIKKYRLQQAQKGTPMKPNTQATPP
parameter: Max Binding MFI

11F2 (antibody, human IgG1, kappa, V domains shown, Rabbit-human chimeric anti-ICAM1: rabbit VH and VL on human IgG1 and kappa constant regions) VH: QSVEESGGGLVKPGGTLTLTCTVSGFSLSSHAMGWVRQAPGKGLEYIGIIGSSDRTYYASWAKGRFTISKTSTTVDLKITSPTTEDTATYFCVRDPYDSYDDGYRLWGPGTLVTVSS VL: AYDMTQTPASVEVAVGGTVTIKCQASQSIYRYLSWYQKKPGQRPKFLIYDASKLASGVPSRFEGSGSGTEFTLTISGAQSDDAATYYCQQAYSSGSIDNAFGGGTEVVVKR ... 4060 MFI
3D8 (antibody, human IgG1, kappa, V domains shown, Rabbit-human chimeric anti-ICAM1: rabbit VH and VL on human IgG1 and kappa constant regions) VH: QSLEESGGDLVKPGASLTLTCTASGFSFSSSYWMCWVRQAPGKGLEWIACIDGGSAGYNYYATWAKGRFTISKTSSTTVTLQMTSLTAADRATYFCARGPGSSYNLWGPGTLVTVSS VL: DIVMTQTPASVEAAVGGTVTIKCQASQSISSYLSWYQQKPGQPPKLLIYRASTLASGVPSRFKGSGSGTEFTLTISDLESADAATYYCQSYVFGSSRSYDNAFGGGTEVVVKR ... 6430 MFI
10B8 (antibody, human IgG1, kappa, V domains shown, Rabbit-human chimeric anti-ICAM1: rabbit VH and VL on human IgG1 and kappa constant regions) VH: QSLEESGGRLVTPGGSLTLTCTVSGFSLSSYGMSWVRQAPGKGLEYIGWISFSGSAYYANWAKGRFTISKTSTTVDLKITSPTTEDTATYFCARGGDYGGSTYILNLWGPGTLVTVSS VL: AFELTQTPSSVEAAVGGTVTIKCQASESINSYLSWYQQKPGQPPKLLIYAASTLASGVSSRFKGSGSGTEFTLTISDLESADAATYYCQSYSGTISTSGGAFGGGTEVVVKR ... 6220 MFI
4H5 (antibody, human IgG1, kappa, V domains shown, Rabbit-human chimeric anti-ICAM1: rabbit VH and VL on human IgG1 and kappa constant regions) VH: QSVEESGGRLVTPGTPLTLTCTASGFSLSNYYMSWVRQAPGKGLEWIGIISDSGTTYYASWAKGRFTISKTSTTVDLKITSPTTEDTATYFCARDWSYDSSSGYYYYDMDLWGPGTLVTVSA VL: GYDMTQTPASVEVAVGGTVTIKCQASQSINSWLVWFQHKPGQPPKRLIYKASTLASGVSSRFKGSGSGTHFTLTISGVESADAATYYCQQGYSRSDGEHVFGGGTEVVVKR ... 4720 MFI
8H1 (antibody, human IgG1, kappa, V domains shown, Rabbit-human chimeric anti-ICAM1: rabbit VH and VL on human IgG1 and kappa constant regions) VH: QSVEESGGRLVTPGTPLTLTCTASGFSLSNYYMSWVRQAPGKGLEWIGIISDSGSTYYASWAKGRFTISKTSTTVDLKITSPTTEDTATYFCARDWSYDSSSGYYYYDMDLWGPGTLVTVSA VL: GYDMTQTPASVEVAVGGTVTIKCQASQSINSWLAWFQHKPGQPPKRLIYKASTLASGVSSRFKGSGSGTQFTLTISGVESADAATYYCQQGYSRSDGEHVFGGGTEVVVKR ... 5270 MFI
